Attribution: the supplement of paper PMC13380429

Test system: Vero E6
Test Method Notes: cell viability relative to DMSO; higher = less toxic
Cond: 72 h; 10000 nM
Quantity Kind: cell viability (%)

INSERT INTO results (compound, recorded_value) VALUES
  ('CCc1c(C(=O)NCCc2ccc(N3CCCCC3)cc2)[nH]c2ccc(Cl)cc12', 96),
  ('O=C(Oc1ccc([N+](=O)[O-])cc1)N1CCN(Cc2cccc(Oc3ccccc3)c2)CC1', 99.7),
  ('NC1(Cc2ccc(Cl)cc2)CCN(c2ncnc3[nH]ccc23)CC1', 65.3),
  ('CC[C@@H]1/C=C(\C)C[C@H](C)C[C@H](OC)[C@H]2O[C@@](O)(C(=O)C(=O)N3CCCC[C@H]3C(=O)O[C@H](/C(C)=C/[C@@H]3CC[C@@H](O)[C@H](OC)C3)[C@H](C)[C@@H](O)CC1=O)[C@H](C)C[C@@H]2OC', 102),
  ('O=C(OOC(=O)c1ccccc1)c1ccccc1 [benzoyl-peroxide]', 105),
  ('CN[C@@H](C)C(=O)N[C@H](C(=O)N1CCC[C@H]1c1nc(C(=O)c2ccc(F)cc2)cs1)C1CCCCC1', 104),
  ('COc1ccc2[nH]c(I)c(CCNC(C)=O)c2c1', 108),
  ('O=C(NCC(=O)N1CCCCC1)Nc1ccc2nnsc2c1', 104),
  ('O=C(NCc1ccc(Oc2ccccc2)cc1)c1nc(-c2cc(Br)c(O)c(Br)c2)no1', 79.9),
  ('O=C(O)Cc1ccc(OCc2ccccc2)c(Cl)c1', 96.1),
  ('O=C(/C=C/c1ccc2ccccc2n1)c1ccncc1', 4.2),
  ('O=c1ccc2cc(O[C@@H]3O[C@H](CO)[C@@H](O)[C@H](O)[C@H]3O)c(O)cc2o1', 104),
  ('COc1ccc(NC(=O)c2ccc(-c3ccc(-c4noc(C)n4)cc3C)cc2)cc1OCCN(C)C', 20.1),
  ('C[C@@H]1c2ccccc2CN1CC1=NCCN1 (racemic)', 102),
  ('CC(=O)c1ccc2c(c1)N(CCCN(C)C)c1ccccc1S2', 89.2),
  ('O=C(Nc1cccc(Cl)c1)c1ccccn1', 103),
  ('Cc1ccc(-n2nc(C(C)(C)C)cc2NC(=O)Nc2ccc(OCCN3CCOCC3)c3ccccc23)cc1', 104),
  ('CCN(CCO)CCCOc1ccc2c(Nc3cc(CC(=O)Nc4cccc(F)c4)[nH]n3)ncnc2c1', 88.2);
